ASSAY_NOTES: osmotic lysis modulators in infected erythrocytes, primary screen, PSAC antagonist project, cell-based, P. falciparum Indochina, OD700, 3 h (AID 1156)
MEASUREMENT_CONDITIONS: higher = more signal, called active from +8 up or from −8 down
Record met whenever z-score is at -0.2 or higher; record not met when lower.

Prompt: Dear colleague, could you confirm whether CC=CC(O)C1C=CC2C(=O)N(c3ccccc3)C(=O)C2N1Nc1ccc([N+](=O)[O-])cc1 (stereo not drawn) has z-score at or above -0.2?
Response: met

Prompt: Form field: z-score at least -0.2? Entry: [N-]=[N+]=NCc1ccccc1C[C@]1(C(=O)NCC(O)CO)N=C(c2ccc(OCCCO)cc2)O[C@H]1c1ccccc1CN=[N+]=[N-] (stereo partly drawn)
Response: met

Prompt: Does CC1CC/C=C\[C@H]2OC34C=CCN(CCN5CCOCC5)C(=O)[C@H]3N(CCO)C(=O)[C@@H]4C2C(=O)O1 (stereo partly drawn) have a reported z-score of at least -0.2?
Response: met

Prompt: Dear colleague, could you confirm whether NCCCCCCNC(=O)[C@@H]1C[C@@H]2C(=O)N3CCC[C@H]3C(=O)N2[C@@H]1c1ccc(O)cc1 has z-score at or above -0.2?
Response: not met

Prompt: In plain terms: is recorded z-score at least -0.2 for CC(C)C(=C=CC[C@@H](O)c1ccccc1OCCO)C[C@@H](O)COCc1ccccc1 ?
Response: not met

Prompt: # bool: z-score of CCOC(=O)C1=CC[C@@H](c2ccccc2C(F)(F)F)N(S(=O)(=O)c2ccc(C)cc2)C1 >= -0.2
Response: not met

Prompt: I'd appreciate it if you could say whether O=C1NC(=O)C2C1C=CC(C(O)c1ccc(Br)cc1)N2Nc1ccccn1 (stereo not drawn) has z-score at least equal to -0.2.
Response: met

Prompt: z-score >= -0.2 for CC(C)C(=C=CC[C@H](O)c1ccc(OCCO)cc1)C[C@H](O)c1cc(Cl)cc(Cl)c1O ?
Response: met
